Reported half-life at 1 μM values for the following compounds.
experiment: In vitro microsomal stability, mouse liver microsomes; assay type: in vitro ADME; conditions: mouse, mouse liver microsomes, pH 7.4; read-out: T1/2 @ mLM
Your answer is read as min, so omit the unit and give the number.

O=C(Nc1cnn(Cc2ccc(C(F)(F)F)cc2C(F)(F)F)c1)c1cc(-c2ccccn2)on1 [Compound 11] | 25.3
C[C@H](c1ccc(C(F)(F)F)cc1C(F)(F)F)n1cc(NC(=O)c2cn(-c3ccccn3)nn2)cn1 [Compound 121] | 52.4

Query :: Could you share which half-life at 1 μM value was measured for C[C@H](c1ccc(F)cc1C(F)(F)F)n1cc(NC(=O)c2cc(-c3ccccn3)on2)cn1 [Compound 110] ?
Result :: 14.2

Query :: Lookup CC(c1ccc(C(F)(F)F)cc1C(F)(F)F)n1cc(NC(=O)c2cc(-c3ccccn3)on2)cn1 (single isomer, unassigned) [“Enantiomer A” of Example S5]
Result :: 34.9

Query :: Repeat for the following compound: O=C(Nc1cnn(Cc2ccc(C(F)(F)F)cc2C(F)(F)F)c1)c1cc(-c2cccs2)on1 [Compound 14]
Result :: 7.4

Query :: Next up: O=C(Nc1cnn(Cc2ccc(C(F)(F)F)cc2C(F)(F)F)c1)c1cc(-c2ncccn2)on1 [Compound 129]
Result :: 62.6

Query :: Continue with Cc1c(NC(=O)c2cc(-c3ccccn3)on2)cnn1[C@H](C)c1ccc(C(F)(F)F)cc1C(F)(F)F [Compound 97]
Result :: 26.6

Query :: Request: C[C@H](c1ccc(C(F)(F)F)cc1C(F)(F)F)n1cc(NC(=O)c2cc(-c3ncccn3)on2)cn1 [Compound 101]
Result :: 36.7

Query :: Cc1c(NC(=O)c2cc(-c3ccco3)on2)cnn1Cc1ccc(C(F)(F)F)cc1C(F)(F)F [Compound 93] ?
Result :: 40

Query :: Now the same for CC(c1ccc(C(F)(F)F)cc1C(F)(F)F)n1cc(NC(=O)c2cc(-c3ccco3)on2)cn1 (single isomer, unassigned) [“Enantiomer A” of Example S6]
Result :: 5.97

Query :: Next compound up: CCC(c1ccc(C(F)(F)F)cc1C(F)(F)F)n1cc(NC(=O)c2cc(-c3ccccn3)on2)cn1 (centres unmarked) [Compound 1]
Result :: 35.1

---

Experiment: In vitro microsomal stability, rat liver microsomes
Format: in vitro ADME
Conditions: pH 7.4; intrinsic clearance; rat liver microsomes; read-out: Clint @ rLM
Method: Compounds were incubated at a final concentration of 1 μM with 0.5 mg/mL human liver microsomes (hLM) (#HMMCPL; Thermo), mouse liver microsomes (mLM) (#MSMCPL; Thermo) or rat liver microsomes (rLM) (#RTMCPL; Thermo) and 1 mM reduced dihydronicotinamide-adenine dinucleotide phosphate (NADPH) (#N1630; Sigma) in 100 mM phosphate buffer (pH 7.4) at 37° C. The reactions were terminated at 0, 5, 15 and 30 min by the addition of cold acetonitrile containing 50 ng/mL propranolol as an internal standard. […]
PROPERTY_LABEL: microsomal CLint at 1 μM (µL/min/mg)
Output spec: scalar in µL/min/mg, unitless text.

// solved cases for microsomal CLint at 1 μM follow
CC(c1ccc(C(F)(F)F)cc1C(F)(F)F)n1cc(NC(=O)c2cc(-c3ccccn3)on2)cn1 (single isomer, unassigned) [“Enantiomer A” of Example S5] | 11.5
CCC(c1ccc(C(F)(F)F)cc1C(F)(F)F)n1cc(NC(=O)c2cc(-c3ccccn3)on2)cn1 (centres unmarked) [Compound 1] | 42.7
CN(C(=O)c1cc(-c2ccccn2)on1)c1cnn(Cc2ccc(C(F)(F)F)cc2C(F)(F)F)c1 [Compound 103] | 191

Query :: Suppose we examine the compound CC(c1ccc(C(F)(F)F)cc1C(F)(F)F)n1cc(NC(=O)c2cc(-c3ccco3)on2)cn1 (single isomer, unassigned) [“Enantiomer A” of Example S6] ; what microsomal CLint at 1 μM value has been reported?
Result :: 283

Query :: What do you have for C[C@H](c1ccc(C(F)(F)F)cc1C(F)(F)F)n1cc(NC(=O)c2cnc(-c3ccccn3)s2)cn1 [Compound 104] ?
Result :: 3.32

---

experiment: In vitro microsomal stability, mouse liver microsomes; type: in vitro ADME; settings: pH 7.4; intrinsic clearance; mouse liver microsomes; read-out: Clint @ mLM
PROPERTY_LABEL: microsomal CLint at […], 1 µM

Observe how each entry below is paired with its result.
Cc1c(NC(=O)c2cc(-c3ccco3)on2)cnn1Cc1ccc(C(F)(F)F)cc1C(F)(F)F [Compound 93] | 34.7 µL/min/mg
O=C(Nc1cnn(Cc2ccc(C(F)(F)F)cc2C(F)(F)F)c1)c1cc(-c2cnccn2)on1 [Compound 114] | 8.4 µL/min/mg

Query :: What value of measured microsomal CLint at […], 1 µM is listed for CC(c1ccc(C(F)(F)F)cc1C(F)(F)F)n1cc(NC(=O)c2cc(-c3ccco3)on2)cn1 (stereo not drawn) [Compound 12] ?
Result :: 302 µL/min/mg

Query :: Repeat with O=C(Nc1cnn(Cc2ccc(C(F)(F)F)cc2C(F)(F)F)c1)c1cc(-c2ccccn2)on1 [Compound 11]
Result :: 55 µL/min/mg

Query :: Same thing, different compound: C[C@H](c1ccc(C(F)(F)F)cc1C(F)(F)F)n1cc(NC(=O)c2cnc(-c3ccccn3)s2)cn1 [Compound 104]
Result :: 12.9 µL/min/mg

Query :: Next: C[C@H](c1ccc(C(F)(F)F)cc1C(F)(F)F)n1cc(NC(=O)c2nnc(-c3ccccn3)s2)cn1 [Compound 123]
Result :: 7.2 µL/min/mg

Query :: And Cc1ccc(-c2cc(C(=O)Nc3cnn(Cc4ccc(C(F)(F)F)cc4C(F)(F)F)c3)no2)o1 [Compound 22] ?
Result :: 228 µL/min/mg

Query :: Query C[C@H](c1ccc(C(F)(F)F)cc1C(F)(F)F)n1cc(NC(=O)c2nnc(-c3cnccn3)s2)cn1 [Compound 152] next
Result :: 10.9 µL/min/mg

Query :: Repeat for the following compound: O=C(Nc1cnn(Cc2ccc(C(F)(F)F)cc2C(F)(F)F)c1)c1cc(-c2cccs2)on1 [Compound 14]
Result :: 187 µL/min/mg

Query :: Same question for CC(c1ccc(C(F)(F)F)cc1C(F)(F)F)n1cc(NC(=O)c2nnc(-c3cnccn3)s2)cn1 (stereo not drawn) [Compound 136] please.
Result :: 13 µL/min/mg

Query :: Another compound to look at: Cc1nn([C@H](C)c2ccc(C(F)(F)F)cc2C(F)(F)F)cc1NC(=O)c1cc(-c2ccccn2)on1 [Compound 99]
Result :: 85.2 µL/min/mg

Query :: Another compound to check: C[C@H](c1ccc(C(F)(F)F)cc1C(F)(F)F)n1cc(NC(=O)c2cn(-c3ccccn3)nn2)cn1 [Compound 121]
Result :: 26.4 µL/min/mg

Query :: Field entry: Cc1nn([C@@H](C)c2ccc(C(F)(F)F)cc2C(F)(F)F)cc1NC(=O)c1cc(-c2ccccn2)on1 [Compound 100]
Result :: 72.6 µL/min/mg

Query :: Now consider CN(C(=O)c1cc(-c2ccccn2)on1)c1cnn(Cc2ccc(C(F)(F)F)cc2C(F)(F)F)c1 [Compound 103] .
Result :: 271 µL/min/mg

Query :: And then C[C@H](c1ccc(C(F)(F)F)cc1C(F)(F)F)n1cc(NC(=O)c2cc(-c3ncccn3)on2)cn1 [Compound 101] , what is it?
Result :: 37.7 µL/min/mg

---

inhibition at 1 µM by entry:
test system: ATF6; experiment: ERSE ATF6-luciferase reporter assay (thapsigargin-induced ER stress); assay type: cell-based, human; conditions: Homo sapiens, U2OS; 1 μM test compound; thapsigargin-induced ER stress; U2-OS ATF6 luc reporter cells; 8 hr; read-out: Inh. ATF6-Luc @ 1 μM [%]

Look over these answered cases.
COc1ccccc1-c1cc(C(=O)Nc2cnn(Cc3ccc(C(F)(F)F)cc3C(F)(F)F)c2)no1 | < 25%
O=C(/C=C/c1ccco1)Nc1cnn(Cc2ccc(C(F)(F)F)cc2C(F)(F)F)c1 | < 25%

Next molecule, please.
Query :: # inhibition at 1 µM lookup, item CC(c1ccc(C(F)(F)F)cc1C(F)(F)F)n1cc(NC(=O)c2ccc(-c3ccccn3)cn2)cn1 (stereo not drawn)
Result :: < 25%

---

molecular target: CYP2B6 (Homo sapiens (Human), UniProt P20813); assay: CYP inhibition in human liver microsomes; settings: read-out: CYP-2B6; human liver microsomes; probe substrate bupropion
Sequence (P20813 whole entry): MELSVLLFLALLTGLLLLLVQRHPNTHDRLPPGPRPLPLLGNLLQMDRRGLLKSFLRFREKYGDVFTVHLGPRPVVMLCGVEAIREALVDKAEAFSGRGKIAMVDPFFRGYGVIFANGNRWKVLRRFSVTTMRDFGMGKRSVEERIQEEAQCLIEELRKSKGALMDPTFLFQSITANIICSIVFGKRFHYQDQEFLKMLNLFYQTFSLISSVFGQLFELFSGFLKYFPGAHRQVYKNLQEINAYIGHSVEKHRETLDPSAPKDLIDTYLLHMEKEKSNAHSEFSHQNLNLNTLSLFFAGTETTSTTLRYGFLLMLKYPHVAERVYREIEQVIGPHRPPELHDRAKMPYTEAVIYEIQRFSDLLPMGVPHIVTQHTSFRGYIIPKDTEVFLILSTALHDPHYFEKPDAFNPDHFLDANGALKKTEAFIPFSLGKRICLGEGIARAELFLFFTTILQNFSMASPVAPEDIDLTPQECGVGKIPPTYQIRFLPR
PROPERTY_LABEL: IC50 (µM)
// note: answer is a bare numeric in µM

Some molecules with known IC50 results, for comparison:
C[C@H](c1ccc(C(F)(F)F)cc1C(F)(F)F)n1cc(NC(=O)c2cc(-c3ccccn3)no2)cn1 | 6.45
CC(c1ccc(C(F)(F)F)cc1C(F)(F)F)n1cc(NC(=O)c2cnc(-c3ccccn3)s2)cn1 (stereo not shown) | 4.97
C[C@H](c1ccc(C(F)(F)F)cc1C(F)(F)F)n1cc(NC(=O)c2cc(-c3cnccn3)on2)cn1 | 44.5

Now look at this one.
Query :: Please report the recorded IC50 for O=C(Nc1cnn(Cc2ccc(C(F)(F)F)cc2C(F)(F)F)c1)c1cc(-c2ccccn2)on1 .
Result :: 16.9
